The reader will find reported pIC50 values listed item by item below.
Biological target: PI3-kinase p110-alpha/p85-alpha (Homo sapiens, UniProt P42336)
Sequence (P27986 whole entry): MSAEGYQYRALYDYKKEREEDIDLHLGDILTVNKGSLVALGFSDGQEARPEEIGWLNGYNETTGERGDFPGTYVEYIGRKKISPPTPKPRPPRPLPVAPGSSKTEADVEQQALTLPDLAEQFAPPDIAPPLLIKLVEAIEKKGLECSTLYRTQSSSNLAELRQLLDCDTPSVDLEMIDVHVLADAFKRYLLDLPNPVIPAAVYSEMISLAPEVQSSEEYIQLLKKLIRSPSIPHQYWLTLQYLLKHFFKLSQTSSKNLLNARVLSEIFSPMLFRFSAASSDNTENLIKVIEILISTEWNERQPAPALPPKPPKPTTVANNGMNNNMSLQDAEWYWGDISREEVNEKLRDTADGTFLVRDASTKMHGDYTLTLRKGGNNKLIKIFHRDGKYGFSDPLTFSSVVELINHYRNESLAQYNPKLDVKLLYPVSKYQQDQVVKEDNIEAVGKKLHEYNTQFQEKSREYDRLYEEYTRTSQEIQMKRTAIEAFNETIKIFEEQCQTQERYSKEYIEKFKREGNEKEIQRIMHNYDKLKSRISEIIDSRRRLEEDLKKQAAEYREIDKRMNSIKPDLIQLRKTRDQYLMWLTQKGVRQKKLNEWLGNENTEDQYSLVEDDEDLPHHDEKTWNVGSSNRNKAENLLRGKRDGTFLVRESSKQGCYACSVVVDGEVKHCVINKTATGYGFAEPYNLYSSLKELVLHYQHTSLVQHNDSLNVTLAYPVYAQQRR
Sequence (P42336 whole entry): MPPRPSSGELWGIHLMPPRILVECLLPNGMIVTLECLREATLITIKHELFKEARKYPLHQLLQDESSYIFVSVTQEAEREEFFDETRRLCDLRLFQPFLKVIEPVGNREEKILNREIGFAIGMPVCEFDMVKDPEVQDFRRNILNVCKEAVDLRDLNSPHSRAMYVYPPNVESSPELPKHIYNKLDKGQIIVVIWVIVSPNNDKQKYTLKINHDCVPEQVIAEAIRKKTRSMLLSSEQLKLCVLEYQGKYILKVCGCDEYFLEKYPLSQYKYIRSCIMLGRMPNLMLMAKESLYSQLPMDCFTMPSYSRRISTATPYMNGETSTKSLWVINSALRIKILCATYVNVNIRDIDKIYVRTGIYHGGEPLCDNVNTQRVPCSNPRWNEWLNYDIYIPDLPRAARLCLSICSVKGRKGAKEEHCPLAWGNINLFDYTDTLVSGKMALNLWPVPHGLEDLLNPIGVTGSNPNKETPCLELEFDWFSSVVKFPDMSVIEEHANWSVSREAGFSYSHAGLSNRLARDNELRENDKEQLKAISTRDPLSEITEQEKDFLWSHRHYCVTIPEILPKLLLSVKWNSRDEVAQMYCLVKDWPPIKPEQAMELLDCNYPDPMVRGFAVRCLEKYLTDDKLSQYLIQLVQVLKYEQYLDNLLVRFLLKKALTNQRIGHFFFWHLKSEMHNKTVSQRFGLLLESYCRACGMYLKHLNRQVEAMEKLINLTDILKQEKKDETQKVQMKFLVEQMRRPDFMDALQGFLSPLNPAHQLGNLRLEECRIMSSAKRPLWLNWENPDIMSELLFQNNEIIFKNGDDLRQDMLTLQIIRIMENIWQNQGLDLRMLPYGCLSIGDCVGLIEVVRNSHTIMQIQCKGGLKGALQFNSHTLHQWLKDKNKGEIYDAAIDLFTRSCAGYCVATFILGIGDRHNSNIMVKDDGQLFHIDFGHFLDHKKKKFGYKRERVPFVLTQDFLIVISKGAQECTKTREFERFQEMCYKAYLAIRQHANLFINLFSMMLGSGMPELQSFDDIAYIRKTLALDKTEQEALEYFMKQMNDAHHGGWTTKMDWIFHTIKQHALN
Assay: null: The kinase activity was measured by using the commercial ADP Hunter Plus assay available from DiscoveRx (#33-016), which is a homogeneous assay to measure the accumulation of ADP, a universal product of kinase activity. […] The reaction was carried out for 1 hour at 25° C. Reagent A and B were sequentially added to the wells and plates were incubated for 30 min at 37° C. Fluorescence counts were read in a Victor instrument (Perkin Elmer) with the recommended settings (544 and 580 nm as excitation and emission wavelengths, respectively).
Reminder that pIC50 means the negative base-10 logarithm of the concentration expressed in mol/L.

Take a look at these entries with their results.
molecule="C[S@TB17](=O)(=O)Nc1nc(-c2cccc3[nH]ccc23)nc2c1OCC1COCCN21 (stereo unspecified)" quantitative_result=5.16
molecule=CCNc1nc2ccccc2n1-c1nc2c(c(C(C)(C)S(C)(=O)=O)n1)OC[C@@H]1COCCN21 quantitative_result=5.58
molecule="CS(=O)(=O)C1(c2nc(-c3cc(F)cc4[nH]ccc34)nc3c2OCC2COCCN32)CCOCC1 (stereo unspecified)" quantitative_result=5.22

Please examine the following record next.
The recorded pIC50 for Cc1cc2c(-c3nc4c(c(C5(S(C)(=O)=O)CCOCC5)n3)OCC3COCCN43)cccc2[nH]1 (stereo unspecified) is 4.99

Origin of values: ChEMBL document CHEMBL3886972
